# ASSAY SYSTEM: HLA-C*08:02
# ASSAY INFO: IEDB peptide-MHC binding, purified MHC/direct/fluorescence; filed as Kd, often an IC50 or EC50 that approximates it; bounds were set here for any values at or beyond the usual limits of such assays
# SETUP CONDITIONS: source organism: Corynebacterium glutamicum ATCC 13032
pKd: −log10 of the molar value.

{"RESIDUE STRING": "RIFPATHYV", "pKd": "≤ 4.70"}

====

Kd listing for selected sequences.
# ASSAY SYSTEM: HLA-B*45:01
# ASSAY INFO: IEDB peptide-MHC binding, purified MHC/competitive/radioactivity; filed as Kd, often an IC50 or EC50 that approximates it; bounds were set here for any values at or beyond the usual limits of such assays
# SETUP CONDITIONS: source organism: Mammarenavirus lassaense
MEASUREMENT LABEL: Kd

{"RESIDUE STRING": "REPAGLGSM", "MEASURED VALUE": "≥ 77.7 µM"}
{"RESIDUE STRING": "YDQMKCKSL", "MEASURED VALUE": "≥ 59.4 µM"}
{"RESIDUE STRING": "REAYCQEFSL", "MEASURED VALUE": "1.54 µM"}

====

# ASSAY SYSTEM: HLA-A*03:01
# ASSAY INFO: IEDB peptide-MHC binding, purified MHC/competitive/radioactivity; filed as Kd, often an IC50 or EC50 that approximates it; bounds were set here for any values at or beyond the usual limits of such assays
# SETUP CONDITIONS: source organism: SARS coronavirus Tor2
pKd: −log10 of the molar value.
MEASUREMENT LABEL: pKd

{"RESIDUE STRING": "SMQGAVDINR", "QUALIFYING SIGN": "=", "MEASURED VALUE": 5.64}
{"RESIDUE STRING": "VFGSTMNNK", "QUALIFYING SIGN": "=", "MEASURED VALUE": 5.36}
{"RESIDUE STRING": "KQIANQFNK", "QUALIFYING SIGN": "=", "MEASURED VALUE": 6.97}
{"RESIDUE STRING": "RVPRNLTLSK", "QUALIFYING SIGN": "=", "MEASURED VALUE": 7.91}
{"RESIDUE STRING": "FLAVFQSATK", "QUALIFYING SIGN": "=", "MEASURED VALUE": 7.46}
{"RESIDUE STRING": "MQGAVDINR", "QUALIFYING SIGN": "≤", "MEASURED VALUE": 4.64}
{"RESIDUE STRING": "QQWIQFMMSR", "QUALIFYING SIGN": "=", "MEASURED VALUE": 4.90}
{"RESIDUE STRING": "YTNEIIGYK", "QUALIFYING SIGN": "=", "MEASURED VALUE": 8.30}
{"RESIDUE STRING": "ATSTRHPSK", "QUALIFYING SIGN": "=", "MEASURED VALUE": 9.22}

====

# ASSAY SYSTEM: HLA-A*68:01
# ASSAY INFO: IEDB peptide-MHC binding, purified MHC/competitive/radioactivity; filed as Kd, often an IC50 or EC50 that approximates it; bounds were set here for any values at or beyond the usual limits of such assays
# SETUP CONDITIONS: source organism: Vaccinia virus WR
pKd: −log10 of the molar value.
pKd listing for selected sequences.
MEASUREMENT LABEL: pKd

{"RESIDUE STRING": "YLLVKWIRK", "ASSAY SYSTEM": "HLA-A*68:01", "MEASUREMENT LABEL": "pKd", "QUALIFYING SIGN": "≤", "MEASURED VALUE": 4.45}
{"RESIDUE STRING": "YLINPNILY", "ASSAY SYSTEM": "HLA-A*68:01", "MEASUREMENT LABEL": "pKd", "QUALIFYING SIGN": "=", "MEASURED VALUE": 5.49}
{"RESIDUE STRING": "DTEDIVSDSK", "ASSAY SYSTEM": "HLA-A*68:01", "MEASUREMENT LABEL": "pKd", "QUALIFYING SIGN": "=", "MEASURED VALUE": 6.70}
{"RESIDUE STRING": "QLLRLMADK", "ASSAY SYSTEM": "HLA-A*68:01", "MEASUREMENT LABEL": "pKd", "QUALIFYING SIGN": "≤", "MEASURED VALUE": 4.66}
{"RESIDUE STRING": "ITGNNIILSK", "ASSAY SYSTEM": "HLA-A*68:01", "MEASUREMENT LABEL": "pKd", "QUALIFYING SIGN": "=", "MEASURED VALUE": 8.12}
{"RESIDUE STRING": "TFMIITSTK", "ASSAY SYSTEM": "HLA-A*68:01", "MEASUREMENT LABEL": "pKd", "QUALIFYING SIGN": "=", "MEASURED VALUE": 6.98}
{"RESIDUE STRING": "ESKAKQLCY", "ASSAY SYSTEM": "HLA-A*68:01", "MEASUREMENT LABEL": "pKd", "QUALIFYING SIGN": "=", "MEASURED VALUE": 4.80}
{"RESIDUE STRING": "GMDYEEYKSK", "ASSAY SYSTEM": "HLA-A*68:01", "MEASUREMENT LABEL": "pKd", "QUALIFYING SIGN": "≤", "MEASURED VALUE": 4.68}
{"RESIDUE STRING": "YTFFSYLMK", "ASSAY SYSTEM": "HLA-A*68:01", "MEASUREMENT LABEL": "pKd", "QUALIFYING SIGN": "=", "MEASURED VALUE": 9.09}
{"RESIDUE STRING": "ALFMYYAKR", "ASSAY SYSTEM": "HLA-A*68:01", "MEASUREMENT LABEL": "pKd", "QUALIFYING SIGN": "=", "MEASURED VALUE": 6.03}
{"RESIDUE STRING": "CIFAFIDFSK", "ASSAY SYSTEM": "HLA-A*68:01", "MEASUREMENT LABEL": "pKd", "QUALIFYING SIGN": "=", "MEASURED VALUE": 7.34}
{"RESIDUE STRING": "ILQLIRHGR", "ASSAY SYSTEM": "HLA-A*68:01", "MEASUREMENT LABEL": "pKd", "QUALIFYING SIGN": "=", "MEASURED VALUE": 7.12}
{"RESIDUE STRING": "ELGFNYPEY", "ASSAY SYSTEM": "HLA-A*68:01", "MEASUREMENT LABEL": "pKd", "QUALIFYING SIGN": "=", "MEASURED VALUE": 5.05}
{"RESIDUE STRING": "KLDDVEKEK", "ASSAY SYSTEM": "HLA-A*68:01", "MEASUREMENT LABEL": "pKd", "QUALIFYING SIGN": "≤", "MEASURED VALUE": 4.22}
{"RESIDUE STRING": "RFVEELLHR", "ASSAY SYSTEM": "HLA-A*68:01", "MEASUREMENT LABEL": "pKd", "QUALIFYING SIGN": "=", "MEASURED VALUE": 6.64}
{"RESIDUE STRING": "DIDILQTNSR", "ASSAY SYSTEM": "HLA-A*68:01", "MEASUREMENT LABEL": "pKd", "QUALIFYING SIGN": "=", "MEASURED VALUE": 6.08}
{"RESIDUE STRING": "DAKNDDWKKY", "ASSAY SYSTEM": "HLA-A*68:01", "MEASUREMENT LABEL": "pKd", "QUALIFYING SIGN": "≤", "MEASURED VALUE": 4.15}
{"RESIDUE STRING": "SSSVDVDIY", "ASSAY SYSTEM": "HLA-A*68:01", "MEASUREMENT LABEL": "pKd", "QUALIFYING SIGN": "=", "MEASURED VALUE": 5.53}
{"RESIDUE STRING": "KTLDISSFY", "ASSAY SYSTEM": "HLA-A*68:01", "MEASUREMENT LABEL": "pKd", "QUALIFYING SIGN": "=", "MEASURED VALUE": 6.73}
{"RESIDUE STRING": "ILKINSVKY", "ASSAY SYSTEM": "HLA-A*68:01", "MEASUREMENT LABEL": "pKd", "QUALIFYING SIGN": "=", "MEASURED VALUE": 5.74}
{"RESIDUE STRING": "VSLVKKNKKR", "ASSAY SYSTEM": "HLA-A*68:01", "MEASUREMENT LABEL": "pKd", "QUALIFYING SIGN": "≤", "MEASURED VALUE": 4.32}
